Molecular target: human ether-à-go-go-related gene (hERG) potassium channel (human, UniProt Q12809);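 further: peak tail current of the secondary pulse compared with the same well before compound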
Sequence (Q12809 whole entry, looked up): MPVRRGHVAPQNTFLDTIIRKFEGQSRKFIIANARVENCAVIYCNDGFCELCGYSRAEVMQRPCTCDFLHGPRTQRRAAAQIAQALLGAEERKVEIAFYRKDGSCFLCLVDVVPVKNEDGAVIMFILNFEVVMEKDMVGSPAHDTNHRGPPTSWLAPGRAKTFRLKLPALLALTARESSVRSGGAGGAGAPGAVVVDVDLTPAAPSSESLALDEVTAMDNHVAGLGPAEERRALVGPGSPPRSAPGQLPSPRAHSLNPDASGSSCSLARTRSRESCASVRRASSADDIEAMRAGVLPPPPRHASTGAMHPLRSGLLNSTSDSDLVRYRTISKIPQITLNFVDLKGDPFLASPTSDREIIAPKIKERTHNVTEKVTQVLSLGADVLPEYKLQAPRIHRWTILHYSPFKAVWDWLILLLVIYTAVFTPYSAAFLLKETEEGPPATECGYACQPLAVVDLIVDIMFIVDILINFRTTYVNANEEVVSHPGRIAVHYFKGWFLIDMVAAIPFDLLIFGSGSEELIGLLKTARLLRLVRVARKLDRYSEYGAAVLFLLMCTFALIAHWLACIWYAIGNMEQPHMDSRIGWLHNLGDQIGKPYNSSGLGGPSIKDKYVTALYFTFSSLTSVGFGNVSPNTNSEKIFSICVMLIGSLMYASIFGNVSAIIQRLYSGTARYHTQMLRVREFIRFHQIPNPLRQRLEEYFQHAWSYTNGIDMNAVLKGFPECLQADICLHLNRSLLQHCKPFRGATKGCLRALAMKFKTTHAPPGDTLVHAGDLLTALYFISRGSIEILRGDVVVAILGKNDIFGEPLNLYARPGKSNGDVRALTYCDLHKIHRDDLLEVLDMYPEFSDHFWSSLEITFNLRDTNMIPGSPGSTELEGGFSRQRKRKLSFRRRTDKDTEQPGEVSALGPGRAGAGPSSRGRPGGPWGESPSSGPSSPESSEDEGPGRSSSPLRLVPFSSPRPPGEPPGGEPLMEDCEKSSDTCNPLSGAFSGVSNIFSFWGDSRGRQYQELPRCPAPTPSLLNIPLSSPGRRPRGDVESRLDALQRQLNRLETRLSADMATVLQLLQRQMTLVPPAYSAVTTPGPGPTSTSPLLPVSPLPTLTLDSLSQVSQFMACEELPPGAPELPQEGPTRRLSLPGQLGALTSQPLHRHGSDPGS
Assay: primary screen, population patch clamp on CHO cells stably expressing hERG; higher = less effect of the substance
Out of some 310,000 compounds screened, about 14,000 (4.5%) showed an effect of 50% or more. Effects have a minus sign here. This excerpt belongs to a sample that is enriched for strong results.
Reported hERG current change (%, negative = inhibition) at 10uM values for the following compounds.
Just so you know, I need the unit written after the number.

Reference set, count: 5
{"COMPOUND": "O=C(NCc1cccs1)C1CCN(S(=O)(=O)c2ccc(Br)s2)CC1", "MEAS_VALUE": "-14.8%"}
{"COMPOUND": "C=CCN(c1ccc(C(=O)N(CC)CC)cc1)S(C)(=O)=O", "MEAS_VALUE": "-4.12%"}
{"COMPOUND": "c1ccc(OCCCCN2CCOCC2)cc1", "MEAS_VALUE": "-14.5%"}
{"COMPOUND": "O=C(Nc1ccc(Cl)cc1)c1ccc(-n2cccn2)c([N+](=O)[O-])c1", "MEAS_VALUE": "4.78%"}
{"COMPOUND": "COc1ccccc1NC(=O)CC1C(=O)Nc2c1c(=O)n(C)c(=O)n2C (stereo not shown)", "MEAS_VALUE": "4.88%"}

What the record says about COC(=O)Nc1nc(-c2ccc(F)cc2)c(C)s1 : hERG current change (%, negative = inhibition) at 10uM is 14.5%

What the record says about COc1ccccc1-c1nnc(C2CCN(S(=O)(=O)c3ccc([N+](=O)[O-])cc3)CC2)o1 : hERG current change (%, negative = inhibition) at 10uM is -74.6%

What the record says about Cc1cc(C)c(NC(=O)CCCN2CCOCC2)c(C)c1 : hERG current change (%, negative = inhibition) at 10uM is 13.1%

What the record says about CCn1cnc2c(oc3ccccc32)c1=O : hERG current change (%, negative = inhibition) at 10uM is 18.3%

What the record says about COc1ccccc1-c1nnc(C2CCN(S(=O)(=O)c3cccc([N+](=O)[O-])c3)CC2)o1 : hERG current change (%, negative = inhibition) at 10uM is -57.6%
